- System: Proteus vulgaris (indol+) A 232
- test.name: MIC, liquid medium dilution
- Format: cell-based
- test.context: 48 h
Field: MIC. Provide a value for each of the compounds that follow.
A number alone suffices; assume µg/mL.

Memo: CO/N=C(\C(=O)NC1C(=O)N2C(C(=O)O)=C(C)CSC12)c1csc(N)n1 (stereo not shown) , reported MIC: 20

Per the records, this compound ( CO/N=C(\C(=O)NC1C(=O)N2C(C(=O)O)=C(CSc3nnnn3C)CS[C@H]12)c1csc(N)n1 (stereo partly shown) ) has MIC equal to 20

----------
- Tested on: Klebsiella pneumoniae 2 536 Resistant Gentamicine
- test.name: MIC, liquid medium dilution
- Type: cell-based
- test.context: 48 h
- Procedure: The method used was a dilution of a liquid medium where a series of tubes received the same quantity of a sterile nutritive media and increasing doses of the test compounds were placed therein. Then each tube was seeded with a bacterial strain and was incubated for 24 or 48 hours at 37° C. in an oven. The increasing inhibition was determined by transillumination to determine the minimum inhibiting concentration (MIC in μg/ml) and the results are reported in the following Tables.
endpoint: MIC

// MIC lookup, compound = CO/N=C(\C(=O)NC1C(=O)N2C(C(=O)O)=C(CSC(C)=O)CSC12)c1csc(N)n1 (centres unmarked) [Example 6] , result: 2 µg/mL

Notebook: CO/N=C(\C(=O)NC1C(=O)N2C(C(=O)O)=C(CSc3nnc(C)s3)CS[C@H]12)c1csc(N)n1 (some centres unmarked) [Example 2] , MIC read as 1 µg/mL

The compound listed as CO/N=C(/C(=O)NC1C(=O)N2C(C(=O)O)=C(CSC(C)=O)CSC12)c1csc(N)n1 (centres unmarked) [Example 17] has a reported MIC of > 100 µg/mL

Please fill in: MIC reported for CO/N=C(\C(=O)NC1C(=O)N2C(C(=O)O)=C(C)CSC12)c1csc(N)n1 (centres unmarked) [Example 10] = 2 µg/mL

GET /value?item= CO/N=C(/C(=O)NC1C(=O)N2C(C(=O)O)=C(C)CS[C@H]12)c1csc(N)n1 (some centres unmarked) [Example 15] &field=MIC returns > 100 µg/mL
